Here, each record is paired with measured Zone diameter data.
system: Staphylococcus aureus 3055; conditions: 300 mcg./disc; second test, Table 13; benzylpenicillin-susceptible
Bridge positions count the residues as written; N and C are the ends. Square brackets hold non-standard residues; d marks the D form. Peptide text beside a SMILES is read from it. * marks the point of attachment. ξ: configuration not given here. Octatrienoyl(2E,4E,6E) = C/C=C/C=C/C=C/C(=O)*; ξPro(4ξ-Me) = CC1CNC(C(=O)O)C1; NMeA = CN[CH](C)C(=O)O; X1 = O=C(/C=C/C=C/CO)*
Numeric answer only, unit mm. assumed.

Some entries whose results are on file:
[
  {
    "COMPOUND": "CC1CC2C(=O)N(C)C(C)C(=O)NC(C)C(=O)N3CCCC3C(=O)OCC(NC(=O)C(Cc3ccccc3)NC(=O)/C=C/C=C/CO)C(=O)N2C1 (stereo not drawn) [Factor H] (X1-FS[ξPro(4ξ-Me)][NMeA]AP; ester 2-C; configuration not given here)",
    "MEASURED_PARAMETER": "Zone diameter",
    "UNIT_ABBREV": "mm.",
    "RECORDED_VALUE": 11
  },
  {
    "COMPOUND": "C/C=C/C=C/C=C/C(=O)NC(Cc1ccccc1)C(=O)NC1COC(=O)C2CCCN2C(=O)C(C)NC(=O)C(C)N(C)C(=O)C2CC(C)CN2C1=O (stereo not drawn) [Factor A] ({Octatrienoyl(2E,4E,6E)}-FS[ξPro(4ξ-Me)][NMeA]AP; ester 2-C; configuration not given here)",
    "MEASURED_PARAMETER": "Zone diameter",
    "UNIT_ABBREV": "mm.",
    "RECORDED_VALUE": 24
  }
]

Lab note: next compound to report on.
Look at this compound and give its reported Zone diameter. C/C=C/C=C/C=C/C(=O)NC(Cc1ccccc1)C(=O)NC1COC(=O)C2CCCN2C(=O)C(C)NC(=O)C(C)N(C)C(=O)C2CCCN2C1=O (stereo not drawn) [Factor B] ({Octatrienoyl(2E,4E,6E)}-FSP[NMeA]AP; ester 2-C; configuration not given here)
26

###

system: Peptostreptococcus anaerobius 1428; assay: MIC, agar-dilution method; type: cell-based
Bridge positions count the residues as written; N and C are the ends. Square brackets hold non-standard residues; d marks the D form. Peptide text beside a SMILES is read from it. * marks the point of attachment. ξ: configuration not given here. ξPro(4ξ-Me) = CC1CNC(C(=O)O)C1; X2 = CCC/C=C/C=C/C(=O)*; NMeA = CN[CH](C)C(=O)O; X1 = O=C(/C=C/C=C/CO)*
Recorded MIC values for a group of compounds are listed next.
Report the value in µg/mL with no unit label.

[
  {
    "COMPOUND": "CCC/C=C/C=C/C(=O)NC(Cc1ccccc1)C(=O)NC1COC(=O)C2CCCN2C(=O)C(C)NC(=O)C(C)N(C)C(=O)C2CC(C)CN2C1=O (centres unmarked) [Factor D] (X2-FS[ξPro(4ξ-Me)][NMeA]AP; ester 2-C; configuration not given here)",
    "UNIT_ABBREV": "µg/mL",
    "MIC": 128
  }
]

Find the recorded MIC belonging to CC1CC2C(=O)N(C)C(C)C(=O)NC(C)C(=O)N3CCCC3C(=O)OCC(NC(=O)C(Cc3ccccc3)NC(=O)/C=C/C=C/CO)C(=O)N2C1 (centres unmarked) [Factor H] (X1-FS[ξPro(4ξ-Me)][NMeA]AP; ester 2-C; configuration not given here) and report it.
128

Where do the numbers come from? From patent US4492650A.
